# Test system: TGFβ/SMAD Signaling Pathway SBE reporter cell line
# Assay overview: TGFb reporter assay in HEK293 SBE-LUC reporter cells (luciferase)
# Type: cell-based
# Applied conditions: Homo sapiens, key of the table says IC50, read-out: EC50 (the source's name)
pIC50: −log10 of the molar value.
Can you tell me pIC50 for the items I'm about to list?

Field pIC50 (entry `Cc1cccc(-c2nc(CN[C@H]3c4ccccc4C[C@@H]3O)[nH]c2-c2ccc3ncnn3c2)n1` ) reads 7.00 to 8.00

Field pIC50 (entry `Cc1cccc(-c2nc(CNCc3cccc4ccccc34)[nH]c2-c2ccc3ncnn3c2)n1` ) reads 7.00 to 8.00

Field pIC50 (entry `Cc1cccc(-c2nc(CNCc3ccccc3)[nH]c2-c2ccnc3ccccc23)n1` ) reads 6.00 to 7.00

Field pIC50 (entry `Cc1cccc(-c2nc(CNCc3ccccc3N(C)C)[nH]c2-c2ccc3ncnn3c2)n1` ) reads 8.00 to 10.00

Field pIC50 (entry Cc1cccc(-c2nc(CNc3cccc4c3C(N)CC4)[nH]c2-c2ccc3ncnn3c2)n1 (centres unmarked) ) reads 6.00 to 7.00

Field pIC50 (entry `Cc1cccc(-c2nc(CNc3cccc4c3CNC4)[nH]c2-c2ccn3ncnc3c2)n1` ) reads 6.00 to 7.00

Field pIC50 (entry `Cc1cccc(-c2nc(CNC3Cc4ccccc4C3)[nH]c2-c2ccc3ncnn3c2)n1` ) reads 7.00 to 8.00

Field pIC50 (entry `Cc1cccc(-c2nc(CN[C@H]3CCCC[C@H]3F)[nH]c2-c2ccn3ncnc3c2)n1` ) reads 6.00 to 7.00

Field pIC50 (entry `Cc1cccc(-c2nc(CNCCc3cccc4ncccc34)[nH]c2-c2ccc3ncnn3c2)n1` ) reads 7.00 to 8.00

Field pIC50 (entry `Cc1cccc(-c2nc(CN[C@H]3CCCC[C@@H]3F)[nH]c2-c2ccn3ncnc3c2)n1` ) reads 6.00 to 7.00

Field pIC50 (entry `Cc1cccc(-c2nc(CNCc3ccccc3-c3ccccc3)[nH]c2-c2ccc3ncccc3c2)n1` ) reads 7.00 to 8.00

Field pIC50 (entry `Cc1cccc(-c2nc(CNCCc3ccc(F)cc3F)[nH]c2-c2ccc3ncnn3c2)n1` ) reads 8.00 to 10.00

Field pIC50 (entry `Cc1cccc(-c2nc(CNCc3ccccc3-c3ccccc3)[nH]c2-c2ccc3ncnn3c2)n1` ) reads 8.00 to 10.00

Field pIC50 (entry `Cc1cccc(-c2nc(CNCc3ccccc3Oc3ccncc3)[nH]c2-c2ccc3ncnn3c2)n1` ) reads 5.00 to 6.00

Field pIC50 (entry `Cc1cccc(-c2nc(CNCc3ccccc3C(C)C)[nH]c2-c2ccc3ncnn3c2)n1` ) reads 8.00 to 10.00

Field pIC50 (entry `Cc1cccc(-c2nc(C3CN(C(=O)OC(C)(C)C)C3)[nH]c2-c2ccc3ncnn3c2)n1` ) reads 6.00 to 7.00

Field pIC50 (entry Cc1cccc(-c2nc(CNCc3ccccc3C(O)C(F)(F)F)[nH]c2-c2ccc3ncnn3c2)n1 (centres unmarked) ) reads 8.00 to 10.00

Field pIC50 (entry `Cc1cccc(-c2nc(CNCc3ccccc3C3CCCCC3)[nH]c2-c2ccc3ncnn3c2)n1` ) reads 6.00 to 7.00

Field pIC50 (entry `Cc1cccc(-c2nc(CNCCN(C)c3ccccc3)[nH]c2-c2ccc3ncccc3n2)n1` ) reads 8.00 to 10.00

Field pIC50 (entry `Cc1cccc(-c2nc(CNCc3ccc(Cl)cc3)[nH]c2-c2ccc3ncnn3c2)n1` ) reads 7.00 to 8.00

Field pIC50 (entry `Cc1cccc(-c2nc(CNCc3ccccc3F)[nH]c2-c2ccc3ncnn3c2)n1` ) reads 8.00 to 10.00

Field pIC50 (entry Cc1cccc(-c2nc(CNC3CCCCC3C)[nH]c2-c2ccc3ncnn3c2)n1 (centres unmarked) ) reads 7.00 to 8.00

Field pIC50 (entry `Cc1cccc(-c2nc(CNCc3ccccc3-c3ccccc3)[nH]c2-c2ccc3nccnc3c2)n1` ) reads 7.00 to 8.00

Field pIC50 (entry `Cc1cccc(-c2nc(CNCc3ccccc3)[nH]c2-c2ccc3ncccc3c2)n1` ) reads 8.00 to 10.00

Field pIC50 (entry `Cc1cccc(-c2nc(CNCCc3ccnc4ccccc34)[nH]c2-c2ccc3ncnn3c2)n1` ) reads 7.00 to 8.00

Field pIC50 (entry `Cc1cccc(-c2nc(CNCc3ccccc3OC(F)(F)F)[nH]c2-c2ccc3ncnn3c2)n1` ) reads 8.00 to 10.00

Field pIC50 (entry `Cc1cccc(-c2nc(CNCc3ccccc3-c3cccc(F)c3)[nH]c2-c2ccc3ncnn3c2)n1` ) reads 7.00 to 8.00

Field pIC50 (entry `Cc1cccc(-c2nc(CN[C@@H](C)c3ccccc3)[nH]c2-c2ccc3ncnn3c2)n1` ) reads 6.00 to 7.00

Field pIC50 (entry `Cc1cccc(-c2nc(CN[C@H](C)c3ccccc3)[nH]c2-c2ccc3ncnn3c2)n1` ) reads 7.00 to 8.00

Field pIC50 (entry `Cc1cccc(-c2nc(CNCc3ccccc3-c3cc(F)cc(F)c3)[nH]c2-c2ccc3ncnn3c2)n1` ) reads 7.00 to 8.00

Field pIC50 (entry Cc1cccc(-c2nc(CNc3ccc4c(c3)CCC4N)[nH]c2-c2ccc3ncnn3c2)n1 (centres unmarked) ) reads 6.00 to 7.00

Field pIC50 (entry `Cc1cccc(-c2nc(CNCc3ccccc3-c3ccc(F)cc3)[nH]c2-c2ccc3ncnn3c2)n1` ) reads 8.00 to 10.00

* * *

Can you tell me pIC50 for the items I'm about to list?
# System: TGFβ/SMAD Signaling Pathway SBE reporter cell line
# Assay overview: TGFb reporter assay in HEK293 SBE-LUC reporter cells (luciferase)
# Format: cell-based
# Applied conditions: Homo sapiens, key of the table says IC50, read-out: EC50 (the source's name)
pIC50: −log10 of the molar value.

Field pIC50 (entry `Cc1cccc(-c2nc(C3CNC3)[nH]c2-c2ccc3ncnn3c2)n1` ) reads 5.00 to 6.00

Field pIC50 (entry `Cc1cccc(-c2nc(CNC3CCOCC3)[nH]c2-c2ccc3ncnn3c2)n1` ) reads 7.00 to 8.00

Field pIC50 (entry CC(=O)NC1Cc2cccc(NCc3nc(-c4cccc(C)n4)c(-c4ccc5ncnn5c4)[nH]3)c2C1 (centres unmarked) ) reads 6.00 to 7.00

Field pIC50 (entry `Cc1cccc(-c2nc(CNCc3ccccc3-c3cccnc3)[nH]c2-c2ccc3ncnn3c2)n1` ) reads 8.00 to 10.00

Field pIC50 (entry Cc1cccc(-c2nc(C3CCN(C(=O)OC(C)(C)C)C3)[nH]c2-c2ccc3ncnn3c2)n1 (centres unmarked) ) reads 6.00 to 7.00

Field pIC50 (entry `Cc1cccc(-c2nc(CNCc3c(Cl)cccc3Cl)[nH]c2-c2ccc3ncnn3c2)n1` ) reads 8.00 to 10.00

Field pIC50 (entry `Cc1cccc(-c2nc(CNCc3ccccc3Oc3cccnc3)[nH]c2-c2ccc3ncnn3c2)n1` ) reads 8.00 to 10.00

Field pIC50 (entry `Cc1cccc(-c2nc(CNc3cncc(CN)c3)[nH]c2-c2ccc3ncnn3c2)n1` ) reads 6.00 to 7.00

* * *

# Target system: ALK5 (Homo sapiens, UniProt P36897)
# Construct: purchased Reaction Biology Corp (Malvern, Pa.)
# Sequence (P36897 34-503): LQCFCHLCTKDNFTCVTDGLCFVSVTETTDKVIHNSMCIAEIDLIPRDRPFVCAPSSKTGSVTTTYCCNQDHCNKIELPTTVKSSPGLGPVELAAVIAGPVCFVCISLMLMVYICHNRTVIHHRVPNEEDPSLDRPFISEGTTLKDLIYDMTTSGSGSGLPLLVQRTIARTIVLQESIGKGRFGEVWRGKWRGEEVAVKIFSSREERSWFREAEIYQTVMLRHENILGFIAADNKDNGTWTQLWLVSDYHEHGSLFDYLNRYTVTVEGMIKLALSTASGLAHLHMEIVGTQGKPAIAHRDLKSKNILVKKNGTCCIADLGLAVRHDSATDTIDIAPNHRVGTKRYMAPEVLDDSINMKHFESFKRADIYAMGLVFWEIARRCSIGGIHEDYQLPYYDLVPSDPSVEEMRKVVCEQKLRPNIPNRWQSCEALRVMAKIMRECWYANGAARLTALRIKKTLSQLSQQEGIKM
# Assay overview: ALK5 enzyme inhibition assay (casein substrate, 10 uM ATP, 33P-ATP, filter-binding; Reaction Biology Corp)
# Type: biochemical
# Applied conditions: Table 11
Parameter measured: IC50

Field IC50 (entry COc1ccccc1CCNCc1nc(-c2cccc(C)n2)c(-c2ccc3nccnc3c2)[nH]1 [Compound 87] ) reads 0.1 to 50 nM

Field IC50 (entry Cc1cccc(-c2nc(CNC(c3ccccc3)c3ccccc3)[nH]c2-c2ccc3ncnn3c2)n1 [Compound 13] ) reads 50 to 100 nM

Field IC50 (entry COC(=O)[C@@H](NCc1nc(-c2cccc(C)n2)c(-c2ccc3ncnn3c2)[nH]1)c1ccccc1 [Compound 16] ) reads 0.1 to 50 nM

Field IC50 (entry COc1ccc(CNCc2nc(-c3cccc(C)n3)c(-c3ccc4ncnn4c3)[nH]2)cc1 [Compound 8] ) reads 1000 to 10000 nM

Field IC50 (entry COc1ccccc1CCNCc1nc(-c2cccc(C)n2)c(-c2ccc3ncccc3n2)[nH]1 [Compound 84] ) reads 100 to 1000 nM

Field IC50 (entry Cc1cccc(-c2nc(CNCc3cccc(Cl)c3C)[nH]c2-c2ccc3ncnn3c2)n1 [Compound 47] ) reads 0.1 to 50 nM

Field IC50 (entry Cc1cccc(-c2nc(CNCc3cccc(-c4ccccc4)c3C)[nH]c2-c2ccc3ncnn3c2)n1 [Compound 49] ) reads 100 to 1000 nM

Field IC50 (entry Cc1cccc(-c2nc(CNCCc3c(F)cccc3F)[nH]c2-c2ccc3c(c2)OCO3)n1 [Compound 81] ) reads 0.1 to 50 nM

Field IC50 (entry Cc1cccc(-c2nc(CNCc3ccccc3C)[nH]c2-c2ccc3nccnc3c2)n1 [Compound 86] ) reads 0.1 to 50 nM

Field IC50 (entry Cc1cccc(-c2nc(CNCc3ccccc3N(C)C)[nH]c2-c2ccc3ncnn3c2)n1 [Compound 25] ) reads 100 to 1000 nM

Field IC50 (entry Cc1cccc(-c2nc(CNCc3ccccc3-c3ccc(CN)cc3)[nH]c2-c2ccc3ncnn3c2)n1 [Compound 34] ) reads 100 to 1000 nM

Field IC50 (entry Cc1cccc(-c2nc(CNCc3ccccc3C(O)C(F)(F)F)[nH]c2-c2ccc3ncnn3c2)n1 (stereo not drawn) [Compound 28] ) reads 0.1 to 50 nM

Field IC50 (entry Cc1cccc(-c2nc(CNCc3ccccc3-c3ccccc3)[nH]c2-c2ccnc3ccccc23)n1 [Compound 69] ) reads 100 to 1000 nM

Field IC50 (entry COc1ccc(OC)c(CNCc2nc(-c3cccc(C)n3)c(-c3ccc4ncnn4c3)[nH]2)c1 [Compound 9] ) reads 100 to 1000 nM

Field IC50 (entry Cc1cccc(-c2nc(CNCc3ccccc3C)[nH]c2-c2ccc3ncccc3n2)n1 [Compound 83] ) reads 50 to 100 nM

Field IC50 (entry Cc1cccc(-c2nc(CNCc3ccccc3)[nH]c2-c2ccc3ncccc3c2)n1 [Compound 90] ) reads 50 to 100 nM

Field IC50 (entry Cc1cccc(-c2nc(CNCc3ccccc3-c3cccc(F)c3)[nH]c2-c2ccc3ncnn3c2)n1 [Compound 37] ) reads 50 to 100 nM

Field IC50 (entry Cc1cccc(-c2nc(CNCc3ccccc3-c3ccccc3)[nH]c2-c2ccc3c(c2)OCO3)n1 [Compound 71] ) reads 0.1 to 50 nM

Field IC50 (entry Cc1cccc(-c2nc(CNCc3ccccc3-c3cc(F)cc(F)c3)[nH]c2-c2ccc3ncnn3c2)n1 [Compound 39] ) reads 0.1 to 50 nM

Field IC50 (entry Cc1cccc(-c2nc(CNCc3ccccc3F)[nH]c2-c2ccc3ncnn3c2)n1 [Compound 18] ) reads 0.1 to 50 nM

Field IC50 (entry Cc1cccc(-c2nc(CNCc3cccc(Cl)c3)[nH]c2-c2ccc3ncnn3c2)n1 [Compound 2] ) reads 100 to 1000 nM

Field IC50 (entry Cc1cccc(-c2nc(CNCCN(C)c3ccccc3)[nH]c2-c2ccc3nccnc3c2)n1 [Compound 88] ) reads 0.1 to 50 nM

Field IC50 (entry Cc1cccc(-c2nc(CNCc3ccccc3Cl)[nH]c2-c2ccn3ncnc3c2)n1 [Compound 10] ) reads 0.1 to 50 nM

Field IC50 (entry Cc1cccc(-c2nc(CNCCN(C)c3ccccc3)[nH]c2-c2ccc3ncnn3c2)n1 [Compound 67] ) reads 50 to 100 nM

Field IC50 (entry Cc1cccc(-c2nc(CNCc3ccccc3-c3ccccc3)[nH]c2-c2ccc3ncccc3c2)n1 [Compound 91] ) reads 100 to 1000 nM

Field IC50 (entry Cc1cccc(-c2nc(CNCc3cccc(C)c3-c3ccccc3)[nH]c2-c2ccc3ncnn3c2)n1 [Compound 48] ) reads 0.1 to 50 nM

Field IC50 (entry Cc1cccc(-c2nc(CNCc3ccccc3-c3ccccc3F)[nH]c2-c2ccc3ncnn3c2)n1 [Compound 38] ) reads 0.1 to 50 nM

Field IC50 (entry Cc1cccc(-c2nc(CNCc3ccccc3C#N)[nH]c2-c2ccc3ncnn3c2)n1 [Compound 20] ) reads 1000 to 10000 nM

Field IC50 (entry Cc1cccc(-c2nc(CNCc3cccc(C)c3C)[nH]c2-c2ccc3ncnn3c2)n1 [Compound 45] ) reads 50 to 100 nM

Field IC50 (entry Cc1cccc(-c2nc(CNCc3ccccc3-c3ccncc3)[nH]c2-c2ccc3ncnn3c2)n1 [Compound 42] ) reads 100 to 1000 nM

Field IC50 (entry Cc1cccc(-c2nc(CNCc3ccccc3OC(F)(F)F)[nH]c2-c2ccc3ncnn3c2)n1 [Compound 26] ) reads 0.1 to 50 nM

Field IC50 (entry Cc1cccc(-c2nc(CNCc3ccccc3-c3ccc(F)cc3)[nH]c2-c2ccc3ncnn3c2)n1 [Compound 35] ) reads 0.1 to 50 nM

Field IC50 (entry Cc1cccc(-c2nc(CNCCN(C)c3ccccc3)[nH]c2-c2ccc3ncccc3n2)n1 [Compound 85] ) reads 50 to 100 nM
